Readings of Physical properties logP(pH2.3) for the listed compounds
protocolText: logP (pH2.3), physical properties of Tables 1 to 3
Format: physicochemical
Answer with a bare number; do not write a unit.

Cc1cc(C(F)(C(F)(F)F)C(F)(F)F)ccc1NC(=O)c1cccc(I)c1C(=O)N[C@@H](CC(C)C)C[S+](C)[O-] (stereo partly drawn)	3.39
Cc1cc(C(F)(C(F)(F)F)C(F)(F)F)ccc1NC(=O)c1cccc(Cl)c1C(=O)N[C@H](CS(C)(=O)=O)C(C)C	3.54
CCC(C[S+](C)[O-])NC(=O)c1c(Cl)cccc1C(=O)Nc1ccc(C(F)(C(F)(F)F)C(F)(F)F)cc1C (mixture of isomers)	2.78
Cc1cc(C(F)(C(F)(F)F)C(F)(F)F)ccc1NC(=O)c1cccc(Br)c1C(=O)N[C@H](C[S+](C)[O-])C(C)C (stereo partly drawn)	3.06
Cc1cc(C(F)(C(F)(F)F)C(F)(F)F)ccc1NC(=O)c1cccc(I)c1C(=O)N[C@H](C[S+](C)[O-])C(C)C (stereo partly drawn)	3.13

Consider now this further compound.
Using the record for `Cc1cc(C(F)(C(F)(F)F)C(F)(F)F)ccc1NC(=O)c1cccc(I)c1C(=O)N[C@H](CS(C)(=O)=O)C(C)C` , report its Physical properties logP(pH2.3).
3.70

---

protocolText: logP (pH2.3), physical properties of Tables 1 to 3
Format: physicochemical
attributeMeasured: Physical properties logP(pH2.3)
Answer with a bare number; do not write a unit.

CC[C@@H](CS(C)(=O)=O)NC(=O)c1c(I)cccc1C(=O)Nc1ccc(C(F)(C(F)(F)F)C(F)(F)F)cc1C	3.45
CSC[C@H](CC(C)C)NC(=O)c1c(Cl)cccc1C(=O)Nc1ccc(C(F)(C(F)(F)F)C(F)(F)F)cc1C	5.11
Cc1cc(C(F)(C(F)(F)F)C(F)(F)F)ccc1NC(=O)c1cccc(Cl)c1C(=O)N[C@@H](CC(C)C)CS(C)(=O)=O	3.77
CSC[C@@H](NC(=O)c1c(Cl)cccc1C(=O)Nc1ccc(C(F)(C(F)(F)F)C(F)(F)F)cc1C)C(C)C	4.77

Using the record for `CC[C@@H](CS(C)(=O)=O)NC(=O)c1c(Br)cccc1C(=O)Nc1ccc(C(F)(C(F)(F)F)C(F)(F)F)cc1C` , report its Physical properties logP(pH2.3).
3.37

Could you do the same for `CSC[C@@H](NC(=O)c1c(Br)cccc1C(=O)Nc1ccc(C(F)(C(F)(F)F)C(F)(F)F)cc1C)C(C)C` , please?
4.80

---

protocolText: logP (pH2.3), physical properties of Tables 1 to 3
Type: physicochemical
measurementContext: Table 1
attributeMeasured: Physical properties: logP
Answer with a bare number; do not write a unit.

In the examples that follow, each entry is paired with its recorded Physical properties: logP.
Cc1c(NC(=O)c2cccc(Br)c2C(=O)N[C@@H](C)C[S+](C)[O-])ccc(C(F)(F)C(F)(F)F)c1F (stereo partly shown)	2.42
CSC[C@H](C)NC(=O)c1c(I)cccc1C(=O)Nc1ccc(C(F)(F)F)c(F)c1C	3.58
CSC[C@H](C)NC(=O)c1c(I)cccc1C(=O)Nc1ccc(C(F)(C(F)(F)F)C(F)(F)F)c(F)c1C	4.41
CSC[C@H](C)NC(=O)c1c(Br)cccc1C(=O)Nc1ccc(C(F)(C(F)(F)F)C(F)(F)F)c(F)c1C	4.31
CCS(=O)(=O)C[C@H](C)NC(=O)c1c(Br)cccc1C(=O)Nc1ccc(Br)c(F)c1C	2.39
CCS(=O)(=O)C[C@H](C)NC(=O)c1c(I)cccc1C(=O)Nc1ccc(OC(F)(F)F)c(Cl)c1Cl	3.18

Consider now this further compound.
Using the record for `CCSC[C@H](C)NC(=O)c1c(Br)cccc1C(=O)Nc1ccc(C(F)(C(F)(F)F)C(F)(F)F)c(F)c1C` , report its Physical properties: logP.
4.63
